Assay: Primary qHTS for inhibitors of nuclear receptor binding SET domain protein 2 (NSD2) in an RCH-ACV wild type WT cells (2C) (AID 1645877); further: nearly all actives have a fitted effect of over 70% in size
Settings: RCH-ACV (leukaemia line) NSD2 WT (2C) viability, CellTiter-Glo, 72 h; series mostly up to 44.9 µM
Results filed as inconclusive are left out. Activity calls are given as the source filed them. The call rests on the fitted dose curve; in most records, active means well fitted inhibition curve with a large enough effect; inconclusive means small, poorly fitted or top-dose-only effect; inactive means no such curve, though single readings can be large or run the other way.
Result category, one only: active, inactive

Query block: In this assay, the call recorded for Cn1cc(-c2cc(Oc3cc(F)c(NC(=O)C4(C(=O)Nc5ccccc5)CC4)cc3F)ccn2)cn1 was what?
Result block: active

Query block: In this assay, the call recorded for [2H]C([2H])([2H])C(OC(=O)[C@H](C)N[P@](=O)(OC[C@H]1O[C@@H](n2ccc(=O)[nH]c2=O)[C@](C)(F)[C@@H]1O)Oc1ccccc1)C([2H])([2H])[2H] was what?
Result block: inactive

Query block: In this assay, the call recorded for CCn1c(=O)c2cc(C(N)=O)c(N)nc2n(C2CC2)c1=O was what?
Result block: inactive

Query block: In this assay, the call recorded for COc1cccc(CNC(=O)Nc2nc(-c3ccncc3)cs2)c1 was what?
Result block: active

Query block: In this assay, the call recorded for CC1=CC(=O)C(C(C)C)=CC1=O was what?
Result block: active

Query block: In this assay, the call recorded for CCOC(=O)c1cccc(CNc2ccc(N(C)C(=O)Nc3ccccc3)cc2)c1 was what?
Result block: active

Query block: In this assay, the call recorded for CC1(C)CC23[C@@H]4CC(=O)[C@@H]2COC(=O)[C@@H]3CC[C@H]41 was what?
Result block: active

Query block: In this assay, the call recorded for O=C(CCCCCCC(=O)Nc1ccc(C2OC(CSc3nc(-c4ccccc4)c(-c4ccccc4)o3)CC(c3ccc(CO)cc3)O2)cc1)NO (stereo not drawn) was what?
Result block: active

Query block: In this assay, the call recorded for O=C1CCCC2=C1C1(CCCC1)N=C(Nc1nc3ccccc3o1)N2 was what?
Result block: inactive

Query block: In this assay, the call recorded for CC(C)(N)c1cc(C(=O)N[C@@H]2CCc3ccc(Oc4ccnc5c4CCC(=O)N5)cc3C2)cc(C(F)(F)F)c1 was what?
Result block: active

Query block: In this assay, the call recorded for Cc1c(C(=O)NCCCO)cnn1-c1nc(-c2cccc(C(F)(F)F)c2)cs1 was what?
Result block: active

Query block: In this assay, the call recorded for CC(C)(C)n1nc(-c2ccc(Cl)cc2)c2c(N)ncnc21 was what?
Result block: active

Query block: In this assay, the call recorded for Cc1ccc(OCCSc2ncccn2)c(Br)c1 was what?
Result block: inactive
